assay: Tanguay_ZF_120hpf_EYE_legacy: (Legacy) Oregon State University Tanguay Lab 120 Hour Post-fertilization zebrafish Assay for Eye Malformation (AID 2283636);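 note: binary presence or absence of eye malformation scored by brightfield in 120 hpf larvae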
Records with an inconclusive call do not appear. Calls of active or inactive are those of the source. Rule for the calls: active = hit-call score of the fitted dose curve at least 0.9, where 1 is the maximum; inconclusive = response in the unintended direction; inactive = score below 0.9.
Labels: True for active, False for inactive

CCn1nc(C)c2c1C(=O)NCC(c1ccc(O)cc1)=N2
False
c1ccc2ncccc2c1
False
Cc1nccn1-c1ccc(Sc2cccc(C3(C(N)=O)CCOCC3)c2)cc1
False
O=C(O)c1cccc(C(=O)O)c1
False
C[C@@H](Oc1ccc(CNC(=O)c2cccnc2Oc2ccc3c(c2)OCO3)c(F)c1)C(=O)O
False
CCCCOC(=O)c1ccccc1
False
COc1cc2c(c(OC)c1OC)-c1ccc(OC)c(=O)cc1[C@@H](NC(C)=O)CC2
False
c1ccc2cc3ccccc3cc2c1
False
CCCc1ccccc1
False
OC[C@H]1O[C@@H]2O[C@H]3[C@H](O)[C@@H](O)[C@@H](O[C@H]4[C@H](O)[C@@H](O)[C@@H](O[C@H]5[C@H](O)[C@@H](O)[C@@H](O[C@H]6[C@H](O)[C@@H](O)[C@@H](O[C@H]7[C@H](O)[C@@H](O)[C@@H](O[C@H]1[C@H](O)[C@H]2O)O[C@@H]7CO)O[C@@H]6CO)O[C@@H]5CO)O[C@@H]4CO)O[C@@H]3CO
False
CCCCC(CC)C(=O)OCCOCCOCCOC(=O)C(CC)CCCC (stereo not drawn)
False
O=S1(=O)CCCO1
False
CCCC(CCC)C(=O)O
False
NC(=O)N(O)[C@@H]1COc2cc(OCc3ccccc3)ccc21
False
NC(=O)N1c2ccccc2C=Cc2ccccc21
False
CC(C)C(=O)Nc1ccc([N+](=O)[O-])c(C(F)(F)F)c1
False
CCCCCOC(C)=O
False
C=CN1CCCC1=O
False
C=CCc1cc(S(=O)(=O)c2ccc(O)c(CC=C)c2)ccc1O
False
OCc1ccccc1
False
CCOc1ccc2[nH]cc(C(=O)NCc3ccccc3)c(=O)c2n1
False
C[C@]12C=CC(=O)C=C1CC[C@H]1[C@@H]3C[C@@H](O)[C@](O)(C(=O)CO)[C@@]3(C)C[C@H](O)[C@@]12F
False
OCCOCCOCCO
False
Cn1cc[nH]c1=S
False
COc1cc(C(C)C)c2c(c1)S(=O)(=O)N(COc1cc(=O)n3cccc(OCCN4CCCCC4)c3n1)C2=O
False
O=C(NO)C1(NS(=O)(=O)c2ccc(Oc3ccc(F)cc3)cc2)CCOCC1
False
c1ccc(C(O[C@@H]2CCCN(CCc3ccc4c(c3)OCO4)C2)c2ccccc2)cc1
True
Cc1ccc(S(=O)(=O)NC(=O)NN2CCCCCC2)cc1
False
Cc1nc(-c2ccccn2)ncc1C(=O)Nn1cc(C)c2cc(F)ccc21
False
OC(CCl)CCl
False
CCCOc1ccc(S(=O)(=O)N2CCN(CC)CC2)cc1-c1nc2c(CC)n(Cc3ccccn3)nc2c(=O)[nH]1
False
OCCNCCO
False
CCOC(N)=O
False
Cn1c(=O)c2[nH]cnc2n(C)c1=O
False
CC[C@H](C)C(=O)O[C@H]1C[C@H](O)C=C2C=C[C@H](C)[C@H](CC[C@@H](O)C[C@@H](O)CC(=O)O)[C@H]21
False
c1ccc2c(c1)-c1cccc3c1c-2cc1ccccc13
False
CCCCCCOC(=O)CC(CC(=O)OCCCCCC)(OC(=O)CCC)C(=O)OCCCCCC
False
O=C(O)c1cccc(C[C@@H]2COc3ccc(OCc4nc5cc(F)ccc5s4)cc3[C@@H]2O)c1
False
Cc1ncc([C@@H](CCCCCCc2ccc3c(n2)NCCC3)CC(=O)O)cn1
False
CCCCCCCCCC
False
O=C1CN(N=Cc2ccc([N+](=O)[O-])o2)C(=O)N1
False
OCC(CO)(CO)CO
False
O=S(=O)(O)c1ccc(N=Nc2c(O)ccc3cc(S(=O)(=O)O)ccc23)cc1
False
